interaction score values, listed per item
Biological target: T1, 4H683-bN
T1 chain: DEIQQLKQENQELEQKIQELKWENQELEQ
Assay: two-hybrid library CCNG1;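 also: natural log of median RNA to DNA barcode read ratio; higher means stronger binding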

Binder | interaction score
DKNQQLKQKIQELKQENQELEWKIQELKQ [4H3926-bN] | -1.15
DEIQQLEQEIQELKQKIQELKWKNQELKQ [4H112-bN] | -0.968
DEIQQLKQEIQELEQKNQELKWKNQELEQ [4H575-bN] | 0.443
DKIQQLKQENQELEQEIQELKWKIQELKQ [4H2702-bN] | 0.0387
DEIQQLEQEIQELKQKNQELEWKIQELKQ [4H118-bN] | -0.936
DEIQQLEQKIQELKQENQELKWEIQELKQ [4H346-bN] | 0.0158
DEIQQLKQENQELEQKIQELKWENQELEQ [4H683-bN] | -0.0866
DEIQQLEQKNQELKQEIQELKWEIQELEQ [4H457-bN] | -0.914
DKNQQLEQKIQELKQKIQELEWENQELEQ [4H3427-bN] | -2.33
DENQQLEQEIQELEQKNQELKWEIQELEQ [4H1081-bN] | -0.818
DKIQQLKQEIQELKQEIQELEWENQELEQ [4H2627-bN] | -0.185
DENQQLKQKIQELEQKIQELEWKNQELEQ [4H1831-bN] | -2.14
DKNQQLKQKNQELKQKIQELKWEIQELEQ [4H4073-bN] | -1.31
DKIQQLKQEIQELKQKNQELEWEIQELEQ [4H2673-bN] | -0.954
DKIQQLKQKNQELKQEIQELEWEIQELKQ [4H3010-bN] | 1.02
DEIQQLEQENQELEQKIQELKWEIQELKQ [4H170-bN] | -0.329
DENQQLEQENQELEQEIQELEWKIQELKQ [4H1158-bN] | 0.827
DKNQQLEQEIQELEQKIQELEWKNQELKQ [4H3112-bN] | 0.347
DKIQQLKQEIQELEQENQELKWEIQELKQ [4H2586-bN] | 0.147

Recorded values, source paper PMC10397247.
